The entries below are paired with their reported pIC50.
assayProtocol: In vitro antagonist activity against Thrombin induced gel-filtered platelet (GFP) aggregation at 0.15 nM.
pIC50: −log10 of the molar value.
measurementType: pIC50

COc1ccc(C[C@H](NC(=O)Nc2ccc3c(CN4CCCC4)cn(Cc4c(Cl)cccc4Cl)c3c2)C(=O)N[C@@H](CCCN=C(N)N)C(=O)NCc2ccccc2)cc1 [RWJ-54003]    6.05
COc1ccc(C[C@H](NC(=O)Nc2ccc3c(CN4CCCC4)cn(Cc4ccc(F)cc4)c3c2)C(=O)N[C@@H](CCCNC(=N)N)C(=O)NCc2ccccc2)cc1    5.63
COc1ccc(C[C@H](NC(=O)Nc2ccc3c(CNC4CCCC4)cn(Cc4ccc(F)cc4)c3c2)C(=O)N[C@@H](CCCNC(=N)N)C(=O)NCc2ccccc2)cc1    4.75
NCC[C@H](NC(=O)[C@H](Cc1ccc(F)c(F)c1)NC(=O)Nc1ccc2c(CN3CCCC3)nn(Cc3c(Cl)cccc3Cl)c2c1)C(=O)NCc1ccccc1    6.43
N=C(N)NCCC[C@H](NC(=O)[C@H](Cc1ccc(F)c(F)c1)NC(=O)Nc1ccc2c(CN3CCCC3)cn(Cc3c(Cl)cccc3Cl)c2c1)C(=O)NCc1ccccc1    6.24
N=C(N)NCCC[C@H](NC(=O)[C@H](Cc1ccc(F)c(F)c1)NC(=O)Nc1ccc2c(CN3CCCC3)cn(Cc3c(Cl)cccc3Cl)c2c1)C(=O)NCc1ccncc1    5.97
COc1ccc(C[C@H](NC(=O)Nc2ccc3c(CN4CCCC4)cn(Cc4ccc(OC(F)(F)F)cc4)c3c2)C(=O)N[C@@H](CCCNC(=N)N)C(=O)NCc2ccccc2)cc1    4.74
